- System: PA-1
- assay-text: Cytotoxic activity against Homo sapiens (human) PA1 cells by clonogenic assay
- Format: functional, cell-based
Decision: IC50 beneath 2 µg/mL gives criterion met; IC50 meeting or exceeding 2 µg/mL gives criterion not met.

Field: example entries. Status: answers known.
COC(=O)C1=CO[C@@H](O[C@@H]2O[C@H](COC(=O)C=C(C)C)[C@@H](OC(C)=O)[C@H](OC(C)=O)[C@H]2OC(C)=O)[C@@H]2[C@@H](C)[C@@H](OC(C)=O)C[C@H]12 : criterion met
COC(=O)C1=CO[C@@H](O[C@@H]2O[C@H](COC(=O)c3cc(OC)c(OC)c(OC)c3)[C@@H](OC(C)=O)[C@H](OC(C)=O)[C@H]2OC(C)=O)[C@@H]2[C@@H](C)[C@@H](OC(C)=O)C[C@H]12 : criterion met
CCCCCCCCCCCC(=O)OC[C@H]1O[C@@H](O[C@@H]2OC=C(C(=O)OC)[C@H]3C[C@H](OC(C)=O)[C@H](C)[C@@H]23)[C@H](OC(C)=O)[C@@H](OC(C)=O)[C@@H]1OC(C)=O : criterion met
CCC(=O)OC[C@H]1O[C@@H](O[C@@H]2OC=C(C(=O)OC)[C@H]3C[C@H](OC(C)=O)[C@H](C)[C@@H]23)[C@H](OC(C)=O)[C@@H](OC(C)=O)[C@@H]1OC(C)=O : criterion not met
COC(=O)C1=CO[C@@H](O[C@@H]2O[C@H](CO)[C@@H](O)[C@H](O)[C@H]2O)[C@@H]2[C@@H](C)[C@@H](O)C[C@H]12 : criterion not met
COC(=O)C1=CO[C@@H](O[C@@H]2O[C@H](COC(=O)c3cccc([N+](=O)[O-])c3)[C@@H](OC(C)=O)[C@H](OC(C)=O)[C@H]2OC(C)=O)[C@@H]2[C@@H](C)[C@@H](OC(C)=O)C[C@H]12 : criterion not met

Hello, is IC50 of the following compound strictly smaller than 2 µg/mL? CC[C@]1(O)C[C@@H]2CN(CCc3c([nH]c4ccccc34)[C@@](C(=O)OC)(c3cc4c(cc3OC)N(C)[C@H]3[C@@](O)(C(=O)OC)[C@H](OC(C)=O)[C@]5(CC)C=CCN6CC[C@]43[C@@H]65)C2)C1
criterion met

Hello, is IC50 of the following compound strictly smaller than 2 µg/mL? COC(=O)C1=CO[C@@H](O[C@@H]2O[C@H](COC(c3ccccc3)(c3ccccc3)c3ccccc3)[C@@H](O)[C@H](O)[C@H]2O)[C@@H]2[C@@H](C)[C@@H](O)C[C@H]12
criterion not met
